Target: PEG-3 (UniProt Q6IN02)
Sequence (Q6IN02 whole entry, looked up): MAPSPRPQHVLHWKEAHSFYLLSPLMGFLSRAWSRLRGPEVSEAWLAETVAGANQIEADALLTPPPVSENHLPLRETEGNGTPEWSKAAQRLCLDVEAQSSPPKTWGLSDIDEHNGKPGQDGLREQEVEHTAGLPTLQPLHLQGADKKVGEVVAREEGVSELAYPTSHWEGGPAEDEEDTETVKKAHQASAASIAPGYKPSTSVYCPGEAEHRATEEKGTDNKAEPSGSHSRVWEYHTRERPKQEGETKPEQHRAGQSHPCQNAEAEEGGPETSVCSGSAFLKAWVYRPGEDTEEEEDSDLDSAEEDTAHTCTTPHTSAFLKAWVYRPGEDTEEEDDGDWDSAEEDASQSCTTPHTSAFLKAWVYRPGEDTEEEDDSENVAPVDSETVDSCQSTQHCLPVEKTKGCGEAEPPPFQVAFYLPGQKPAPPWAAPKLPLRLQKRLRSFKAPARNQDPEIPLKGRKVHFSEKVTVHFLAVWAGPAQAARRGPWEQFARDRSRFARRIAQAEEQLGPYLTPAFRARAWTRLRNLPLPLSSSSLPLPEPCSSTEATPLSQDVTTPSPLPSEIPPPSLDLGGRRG
Assay: Peg3 promoter luciferase inhibitors, potency, dose response, cell-based, HeLa, CREF/GAPDH counter-screen panel (AID 624167)
Conditions: HeLa PEG-Prom luciferase reporter, overnight, CREF/GAPDH counter-screens, mean of runs
Active and inactive are the calls of the source.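 Rule for the calls: active = mean IC50 for reducing PEG3 promoter reporter signal at or below a set limit, with IC50 above the limit in both counter screens; inactive = the rest, including counter screen hits.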
Mark one answer only. Choices: Yes (active), No (inactive)

Examples from the recorded data:
O=C(NC1=C(NC2CCS(=O)(=O)C2)C(=O)c2ccccc2C1=O)c1ccccc1 (stereo unspecified); Yes
O=[N+]([O-])c1cc(Cl)cc(/C=N\Nc2ccccn2)c1O; No
CC1=CC(C)[C@H](/C=N/n2c(=O)[nH]c3c([nH]c4ccc(Br)cc43)c2=O)C(C)C1 (stereo partly specified); No
CCCCCCN1C=C/C(=C\C=C(C#N)C#N)c2ccccc21; Yes

// switching to the query compound
Answer briefly: the call reported for CC1(C)Cc2c(C#N)c(N3CCNCC3)nc(-c3ccco3)c2CS1 in this assay.
Yes

* * *

System: Rat fibroblasts (CREF)
Assay: Peg3 promoter luciferase inhibitors, potency, dose response, cell-based, HeLa, CREF/GAPDH counter-screen panel (AID 624167)
Details: CREF/GAPDH counter-screens, mean of runs
Calls of active or inactive are those of the source.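 The calls were made as follows: active = mean IC50 for reducing PEG3 promoter reporter signal at or below a set limit, with IC50 above the limit in both counter screens; inactive = the rest, including counter screen hits.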
Mark one answer only. Choices: 1.0 (active), 0.0 (inactive)

Examples from the recorded data:
CC(C)(C)c1ccc(C(=O)O/N=C(\N)c2ccccn2)cc1; 1.0
CC1=CC2/C=C(\C)CCC(O)C(O)/C=C/C(=O)C23C(=O)NC(CC(C)C)C3C1C (configuration not stated); 1.0
O=C(Nc1ccccc1C(=O)Nc1nnc(C(F)(F)F)s1)c1ccccc1; 0.0
Fc1ccc(-c2nnc(NC3=NCCCCC3)o2)cc1; 1.0

Answer briefly: the call reported for O=C(NCCc1ccccc1)c1ccc2c(c1)OCCO2 in this assay.
1.0

Answer briefly: the call reported for COc1cc(SC)ccc1C(=O)Nc1nc(C)cs1 in this assay.
1.0

Answer briefly: the call reported for Cc1ccc(-n2c(N)c(C(=O)Nc3c(C)n(C)n(-c4ccccc4)c3=O)c3nc4ccccc4nc32)cc1 in this assay.
1.0

Answer briefly: the call reported for O=C(N/N=C\c1c(O)ccc2ccccc12)c1ccc(Cn2cccn2)o1 in this assay.
0.0

Answer briefly: the call reported for CCOC(=O)c1c(-n2c(C)cc(C=C3C(=O)NC(=S)NC3=O)c2C)sc2c1CCCC2 in this assay.
1.0

Answer briefly: the call reported for CC1=NOC(=O)/C1=C\c1ccc(-c2ccccc2Br)o1 in this assay.
1.0

Answer briefly: the call reported for O=C(CCl)Nc1ccccc1Sc1ccc(Cl)cc1 in this assay.
1.0

Answer briefly: the call reported for CN(C)c1c([N+](=O)[O-])cc(N2C(=O)C=CC2=O)cc1[N+](=O)[O-] in this assay.
1.0

Answer briefly: the call reported for Cc1nc(SCC(=O)Nc2nc3ccccc3s2)c(C#N)c(C)c1C in this assay.
1.0

Answer briefly: the call reported for Nc1nonc1-n1nnc(C(=O)N/N=C/c2cc(Br)ccc2O)c1CNc1ccccc1 in this assay.
0.0

Answer briefly: the call reported for CCC(c1ccc(O)c(O)c1)C(CC)c1ccc(O)c(O)c1 (configuration not stated) in this assay.
1.0

Answer briefly: the call reported for O=C(NCCc1ccccc1F)c1ccc2c(c1)OCCO2 in this assay.
1.0

Answer briefly: the call reported for C(=Cc1cnc2ccccc2n1)c1ccc2c(c1)OCO2 in this assay.
1.0

Answer briefly: the call reported for NS(=O)(=O)c1ccc(CCNc2nn3c(-c4ccc(F)c(Cl)c4)cnc3s2)cc1 in this assay.
0.0

Answer briefly: the call reported for N=c1n(CC(=O)c2ccc([N+](=O)[O-])cc2)c2ccccc2n1Cc1ccc(Cl)cc1 in this assay.
1.0

Answer briefly: the call reported for C/C(=N\NC(=O)c1c(C)nc2ccccn12)c1ccc(O)cc1O in this assay.
0.0

Answer briefly: the call reported for O=C(N/N=C/c1sc(N2CCOCC2)nc1-c1ccccc1)c1cccc(S(=O)(=O)N2CCCC2)c1 in this assay.
0.0

Answer briefly: the call reported for O=C(NNC(=O)c1cccnc1SCc1cccc([N+](=O)[O-])c1)c1ccccn1 in this assay.
1.0
